assayed_system: Cathepsin K (Homo sapiens, UniProt P43235)
Construct: purchased Biovision K150-100
Sequence (P43235 115-329): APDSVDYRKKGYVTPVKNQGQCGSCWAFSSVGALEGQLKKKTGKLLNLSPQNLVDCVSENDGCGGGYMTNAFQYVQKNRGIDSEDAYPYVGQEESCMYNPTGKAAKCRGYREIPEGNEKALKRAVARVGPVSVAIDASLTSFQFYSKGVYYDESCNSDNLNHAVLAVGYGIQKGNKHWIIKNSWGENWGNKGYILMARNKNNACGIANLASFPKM
protocol_description: Preliminary screening of Cathepsin K (Cathepsin K Inhibitor Screening Kit K150-100, Biovision)
Assay type: biochemical
experimental_conditions: 1 μM compound; replicate 1; relative inhibition rate vs 10 μM FF-FMK control; read-out: Inhibition % (1 μM) replicate 1
Label 1 when inhibition at 1 µM >= 30%; otherwise 0.

Please review the following examples before continuing.
INSERT INTO results (compound, label) VALUES
  ('CCOC(=O)[C@H]1O[C@@H]1C(=O)N[C@@H](CCSC)C(=O)N1CC(C)CC(C)C1 (stereo partly drawn)', 1),
  ('CCOC(=O)[C@H]1O[C@@H]1C(=O)N[C@@H](CCSC)C(=O)NCCCCc1ccccc1', 1),
  ('CCOC(=O)[C@H]1O[C@@H]1C(=O)N[C@@H](CCSC)C(=O)N1CCCC(C)C1 (stereo partly drawn)', 1),
  ('CCCCCCNC(=O)[C@H](CCSC)NC(=O)[C@H]1O[C@@H]1C(=O)OCC', 1),
  ('CCOC(=O)[C@H]1O[C@@H]1C(=O)N[C@@H](CCSC)C(=O)NC(C)CC (stereo partly drawn)', 1);

// query Threshold query (inhibition at 1 µM >= 30%) on `CCCCCCNC(=O)[C@H](CSCc1ccccc1)NC(=O)[C@H]1O[C@@H]1C(=O)OCC`
// result 0

// query Identify whether the reported inhibition at 1 µM of the following compound is 30% or greater: `CCOC(=O)[C@H]1O[C@@H]1C(=O)N[C@@H](CCSC)C(=O)NCC(C)(C)C`
// result 1

// query In plain terms: is recorded inhibition at 1 µM at least 30% for `CCOC(=O)[C@H]1O[C@@H]1C(=O)N[C@@H](CSCc1ccccc1)C(=O)N1CCCC1` ?
// result 0

// query Form field: inhibition at 1 µM at least 30%? Entry: `CCOC(=O)[C@H]1O[C@@H]1C(=O)N[C@@H](CSCc1ccccc1)C(=O)NC(C)(C)CC`
// result 1

// query Hi, just wondering whether `CCOC(=O)[C@H]1O[C@@H]1C(=O)N[C@@H](CCSC)C(=O)N1CCCC1` shows inhibition at 1 µM of 30% or higher.
// result 0

// query # bool: inhibition at 1 µM of `CCOC(=O)[C@H]1O[C@@H]1C(=O)N[C@@H](CCSC)C(=O)NC(CC)CC` >= 30%
// result 1

// query Reported inhibition at 1 µM at or above 30%? `CCCCCNC(=O)[C@H](CCSC)NC(=O)[C@H]1O[C@@H]1C(=O)OCC`
// result 0

// query I'd appreciate it if you could say whether `CCOC(=O)[C@H]1O[C@@H]1C(=O)N[C@@H](CCSC)C(=O)N1CCSC1` has inhibition at 1 µM at least equal to 30%.
// result 1

====

assayed_system: Cathepsin K (Homo sapiens, UniProt P43235)
Construct: purchased Biovision K150-100
protocol_description: Preliminary screening of Cathepsin K (Cathepsin K Inhibitor Screening Kit K150-100, Biovision)
Format: biochemical
experimental_conditions: 10 μM compound; replicate 2; relative inhibition rate vs 10 μM FF-FMK control; read-out: Inhibition % (10 μM) replicate 2
Hi there, I'd appreciate the recorded inhibition at 10 µM for every entry that follows.
Answers are plain numbers, in %.

Example entries begin here.
INSERT INTO assay_data (compound, observed_property, result_value) VALUES
  ('CCCC(C)NC(=O)[C@H](CCSC)NC(=O)[C@H]1O[C@@H]1C(=O)OCC (stereo partly drawn) [Compound 6]', 'inhibition at 10 µM', 39.1),
  ('CCOC(=O)[C@H]1O[C@@H]1C(=O)N[C@@H](CCSC)C(=O)N1CCSCC1 [Compound 36]', 'inhibition at 10 µM', 63.5),
  ('CCOC(=O)[C@H]1O[C@@H]1C(=O)N[C@@H](CSCc1ccccc1)C(=O)NCCCCc1ccccc1 [Compound 20]', 'inhibition at 10 µM', 50.4),
  ('CCOC(=O)[C@H]1O[C@@H]1C(=O)N[C@@H](CSCc1ccccc1)C(=O)N1CCCC1 [Compound 22]', 'inhibition at 10 µM', 19.5),
  ('CCOC(=O)[C@H]1O[C@@H]1C(=O)N[C@@H](CSCc1ccccc1)C(=O)NC(C)(C)CC [Compound 16]', 'inhibition at 10 µM', 63.6);

Record inhibition at 10 µM for all entries; do not skip any.
1. CCOC(=O)[C@H]1O[C@@H]1C(=O)N[C@@H](CCSC)C(=O)N1CCCC(C)C1 (stereo partly drawn) [Compound 7]
2. CCOC(=O)[C@H]1O[C@@H]1C(=O)N[C@@H](CSCc1ccccc1)C(=O)N1CCC(c2ccccc2)CC1 [Compound 23]
3. CCOC(=O)[C@H]1O[C@@H]1C(=O)N[C@@H](CCSC)C(=O)NC(C)CC (stereo partly drawn) [Compound 32]
4. CCOC(=O)[C@H]1O[C@@H]1C(=O)N[C@@H](CCSC)C(=O)N1CCOCC1 [Compound 12]

// result
[28.4, 63, 40.6, 51.7]
